Data origin, for the record: patent US9834571B2

# Target Desc: EGFR L858R/T790M (Homo sapiens, UniProt P00533, L858R/T790M)
# Sequence (P00533 25-1210 T790M/L858R): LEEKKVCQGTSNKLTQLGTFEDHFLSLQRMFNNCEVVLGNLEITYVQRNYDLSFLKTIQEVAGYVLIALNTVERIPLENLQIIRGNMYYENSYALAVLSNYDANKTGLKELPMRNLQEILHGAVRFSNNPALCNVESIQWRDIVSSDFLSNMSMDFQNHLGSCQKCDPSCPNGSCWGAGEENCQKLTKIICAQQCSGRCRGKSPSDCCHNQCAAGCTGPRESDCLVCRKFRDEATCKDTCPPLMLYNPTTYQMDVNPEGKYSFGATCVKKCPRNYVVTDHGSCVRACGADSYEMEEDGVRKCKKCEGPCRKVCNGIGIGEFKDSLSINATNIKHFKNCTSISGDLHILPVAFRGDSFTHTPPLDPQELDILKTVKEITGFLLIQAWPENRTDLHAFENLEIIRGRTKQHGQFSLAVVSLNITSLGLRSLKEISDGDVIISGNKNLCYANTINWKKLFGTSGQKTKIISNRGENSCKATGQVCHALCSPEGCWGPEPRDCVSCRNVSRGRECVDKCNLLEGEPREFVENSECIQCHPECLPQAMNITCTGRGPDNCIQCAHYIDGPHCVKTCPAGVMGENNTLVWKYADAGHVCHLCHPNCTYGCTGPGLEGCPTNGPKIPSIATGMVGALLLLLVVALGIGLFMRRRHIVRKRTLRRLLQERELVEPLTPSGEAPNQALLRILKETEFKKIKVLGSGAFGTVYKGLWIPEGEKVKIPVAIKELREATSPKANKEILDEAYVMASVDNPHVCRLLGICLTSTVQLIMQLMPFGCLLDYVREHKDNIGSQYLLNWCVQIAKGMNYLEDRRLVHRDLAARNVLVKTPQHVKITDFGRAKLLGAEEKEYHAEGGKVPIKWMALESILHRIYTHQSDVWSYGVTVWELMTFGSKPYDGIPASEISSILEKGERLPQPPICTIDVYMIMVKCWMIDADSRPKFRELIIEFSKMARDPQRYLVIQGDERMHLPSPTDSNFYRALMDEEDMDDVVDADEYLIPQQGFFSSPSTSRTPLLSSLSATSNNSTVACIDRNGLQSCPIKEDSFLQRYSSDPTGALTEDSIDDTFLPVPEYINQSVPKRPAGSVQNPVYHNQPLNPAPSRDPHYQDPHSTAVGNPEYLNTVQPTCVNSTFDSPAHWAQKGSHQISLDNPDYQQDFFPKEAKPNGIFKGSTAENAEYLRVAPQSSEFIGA
# Procedure Summary: Kinase inhibitory activity against EGFR bearing the L858R/T790M double mutation
# Type: biochemical
# Condition Info: EGFR L858R/T790M double mutation; 10 μM ATP; read-out: IC50 for kinase inhibition, EGFR L858R T790M
Measured Endpoint: IC50

q: Please supply the value of reported IC50 for the item `COc1cc(P(C)(C)=O)ccc1Nc1ncc(Cl)c(Oc2cccc(NC(=O)C#CCN(C)C)c2)n1`
a: < 50 nM

q: Please supply the value of reported IC50 for the item `COc1ccc(NC(=O)/C=C\C(=O)N(C)C)cc1Nc1ncc(Cl)c(Nc2ccccc2P(C)(C)=O)n1`
a: ≥ 250 nM

q: Please supply the value of reported IC50 for the item `C=CC(=O)Nc1cc(Nc2ncc(Cl)c(Nc3ccccc3P(C)(C)=O)n2)c(OC)cc1N1CCC(N(C)C)CC1`
a: < 50 nM

q: Please supply the value of reported IC50 for the item `C=C(CN1CCCC1)C(=O)Nc1ccc(OC)c(Nc2ncc(Cl)c(Nc3ccccc3P(C)(C)=O)n2)c1`
a: < 50 nM

q: Please supply the value of reported IC50 for the item `COc1ccc(NC(=O)/C=C/Cl)cc1Nc1ncc(Cl)c(Nc2ccccc2P(C)(C)=O)n1`
a: < 50 nM

q: Please supply the value of reported IC50 for the item `C=CC(=O)Nc1cc(Nc2ncc(Cl)c(Nc3ccccc3P(C)(C)=O)n2)c(OC)cc1OCC1CCOCC1`
a: 50 to 100 nM

q: Please supply the value of reported IC50 for the item C=CC(=O)Nc1cc(Nc2ncc(Cl)c(Nc3ccccc3P(C)(C)=O)n2)c(OC)cc1N1CCC(N2CCC2)C1 (stereo not drawn)
a: < 50 nM

q: Please supply the value of reported IC50 for the item `C=C(CN1CCOCC1)C(=O)Nc1ccc(OC)c(Nc2ncc(Cl)c(Nc3ccccc3P(C)(C)=O)n2)c1`
a: < 50 nM

q: Please supply the value of reported IC50 for the item C=CC(=O)Nc1cc(Nc2ncc(Cl)c(Nc3ccccc3P(C)(C)=O)n2)c(OC)cc1O[C@@H]1CCCN(C)C1 (single isomer, unassigned)
a: < 50 nM

q: Please supply the value of reported IC50 for the item `COc1ccc(NC(=O)/C=C\C(=O)NCCN(C)C)cc1Nc1ncc(Cl)c(Nc2ccccc2P(C)(C)=O)n1`
a: < 50 nM

q: Please supply the value of reported IC50 for the item `COc1ccc(NC(=O)/C=C/C2(N)CC2)cc1Nc1ncc(Cl)c(Nc2ccccc2P(C)(C)=O)n1`
a: < 50 nM

q: Please supply the value of reported IC50 for the item `C=C(F)C(=O)Nc1ccc(OC)c(Nc2ncc(Cl)c(Nc3ccccc3P(C)(C)=O)n2)c1`
a: 50 to 100 nM

q: Please supply the value of reported IC50 for the item C=CC(=O)Nc1cc(Nc2ncc(Cl)c(Nc3ccccc3P(C)(C)=O)n2)c(OC)cc1N1CCC(N(C)C)C1 (stereo not drawn)
a: < 50 nM

q: Please supply the value of reported IC50 for the item C=CC(=O)Nc1cc(Nc2ncc(Cl)c(Nc3ccccc3P(C)(C)=O)n2)c(OC)cc1N1CC[C@@H](N(C)C)C1 (stereo in doubt)
a: < 50 nM

q: Please supply the value of reported IC50 for the item C=CC(=O)Nc1cc(Nc2ncc(Cl)c(Nc3ccccc3P(C)(C)=O)n2)c(OC)cc1N1CCC(N2CCC(O)C2)C1 (stereo not drawn)
a: < 50 nM
